Data provenance is paper PMC4657974.

System: K-Shaw2 (Drosophila melanogaster, UniProt P17972)
Construct: full-length channel, homotetramer, expressed in Xenopus oocytes from cRNA
Sequence (P17972 1-498): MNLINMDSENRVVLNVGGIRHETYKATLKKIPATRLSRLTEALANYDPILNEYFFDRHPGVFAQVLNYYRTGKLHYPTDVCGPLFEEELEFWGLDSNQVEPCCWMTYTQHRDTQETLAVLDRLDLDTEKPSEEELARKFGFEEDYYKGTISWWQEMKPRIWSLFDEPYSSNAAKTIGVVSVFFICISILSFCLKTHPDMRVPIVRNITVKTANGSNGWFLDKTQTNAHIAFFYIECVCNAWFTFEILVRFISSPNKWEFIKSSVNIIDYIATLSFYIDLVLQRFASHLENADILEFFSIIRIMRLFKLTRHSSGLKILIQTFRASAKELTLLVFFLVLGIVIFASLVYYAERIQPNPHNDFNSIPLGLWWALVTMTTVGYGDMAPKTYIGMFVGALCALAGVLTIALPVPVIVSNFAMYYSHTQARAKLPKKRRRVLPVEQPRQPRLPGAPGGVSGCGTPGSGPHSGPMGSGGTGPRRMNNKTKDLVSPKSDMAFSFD
Assay Protocol: two-electrode voltage clamp, Xenopus oocytes, double Hill fit
Recorded Conditions: read-out: K 1
Reported Endpoint: pEC50
Give only the number. pEC50 is defined as minus log10 of concentration in molar units.

The compound FCOC(C(F)(F)F)C(F)(F)F showed pEC50 equal to 4.10

---

System: T1, ΔT1-K-Shaw2 (Drosophila melanogaster, UniProt P17972, DEL2-155)
T1 construct: T1 domain deleted (lacks residues 2-155), homotetramer, expressed in Xenopus oocytes
T1 sequence (P17972 with tags, fused parts or gaps DEL2-155): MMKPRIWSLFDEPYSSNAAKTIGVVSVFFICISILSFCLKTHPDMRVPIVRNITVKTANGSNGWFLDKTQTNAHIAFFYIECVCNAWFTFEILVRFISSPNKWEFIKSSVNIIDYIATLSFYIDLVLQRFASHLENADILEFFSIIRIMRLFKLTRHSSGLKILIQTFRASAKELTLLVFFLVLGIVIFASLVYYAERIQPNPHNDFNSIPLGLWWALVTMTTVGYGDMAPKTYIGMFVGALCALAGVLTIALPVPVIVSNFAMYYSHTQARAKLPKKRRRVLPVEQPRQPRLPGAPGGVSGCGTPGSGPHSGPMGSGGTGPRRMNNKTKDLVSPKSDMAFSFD
Assay Protocol: two-electrode voltage clamp, Xenopus oocytes, Hill fit
Recorded Conditions: read-out: K 1
// values below are reported pIC50
Give only the number. pIC50 is defined as minus log10 of concentration in molar units.

CCCCO = 1.79

Turning now to a further record.
Note to self: pIC50 of FC(F)(F)C(Cl)Br (centres unmarked) with T1, ΔT1-K-Shaw2 (Drosophila melanogaster, UniProt P17972, DEL2-155) was 3.42
